Entries below carry reported MIC on Escherichia coli NIHJ.
Please state the figure in µg/mL; there is no need to write the unit.

In the examples that follow, each entry is paired with its recorded MIC.
COc1cnc2c(O)c(C(=O)NC(C(=O)NC3C(=O)N4C3SC(C)(C)C4C(=O)O)c3cccc(N)c3)cnc2n1 (centres unmarked): 0.78
CC1(C)SC2C(NC(=O)C(NC(=O)c3cnc4cccnc4c3O)c3ccc(O)c([N+](=O)[O-])c3)C(=O)N2C1C(=O)O (centres unmarked): 1.56
Cc1nc(C)c2ncc(C(=O)NC(C(=O)NC3C(=O)N4C3SC(C)(C)C4C(=O)O)c3cccc(N)c3)c(O)c2n1 (centres unmarked): 0.78

Observed MIC on Escherichia coli NIHJ, entry CC1(C)S[C@@H]2[C@H](NC(=O)C(NC(=O)c3cc4ccccc4nc3O)c3cccc(N)c3)C(=O)N2[C@H]1C(=O)O (some centres unmarked) , equals 3.13

Reference source for all entries: patent US3992371A
